- Test system: MX1
- PROCEDURE TEXT: Antiproliferative activity against human MX1 cells incubated for 72 hrs by cell-titer Glo assay
- Assay type: functional, cell-based
- COND: MX1, 72 h
ASSAY READOUT: pEC50
# pEC50 is unitless: minus log10 of the molar concentration; print number only

Task item: Any idea what pEC50 was measured for Cn1cc2c3c(c[nH]c(=O)c31)-c1cc(CS(C)(=O)=O)ccc1N(C(=O)C1CC1)C2 ?
Reply: 7.80

Task item: Same lookup for Cn1cc(-c2cc(S(C)(=O)=O)ccc2NCC2CC2)c2cc[nH]c2c1=O , please.
Reply: 7.77

Task item: Same lookup for CCS(=O)(=O)Nc1cnc2c(c1)-c1cn(C)c(=O)c3[nH]cc(c13)CN2c1ccc(F)cc1F , please.
Reply: 8.15
